Exercise: for every item that follows, state its recorded pKd.
Keep in mind that pKd stands for -log10 of concentration in molar terms.

Q: Requested read-out pKd, target or system BCL6 BTB domain (Homo sapiens (Human), UniProt P41182), entry CC(C)[C@H]1CN(C)CCN1c1cc(NC(=O)Cn2cc(-c3cc(Cl)c(O)c(C(N)=O)c3)c3c(=O)n(C)cnc32)c(Cl)cn1 [Compound I-360]
Ans: 7.51

Q: Record lookup: for BCL6 BTB domain (Homo sapiens (Human), UniProt P41182), what pKd belongs to CN(C)C1CN(c2cc(NC(=O)Cn3cc(-c4cc(Cl)c(O)c(C(N)=O)c4)c4c(=O)n(C)cnc43)c(Cl)cn2)C1 [Compound I-347] ?
Ans: 7.24

Q: Request body: readout pKd, system BCL6 BTB domain (Homo sapiens (Human), UniProt P41182), query CN1CCN(c2cc(NC(=O)Cn3cc(-c4cc(F)c(O)c(C(N)=O)c4)c4c(=O)n(CC#Cc5cnn(C)c5)cnc43)c(Cl)cn2)CC1 [Compound I-478] . Return the value.
Ans: 8.34

Q: Query the reported pKd for BCL6 BTB domain (Homo sapiens (Human), UniProt P41182); item: Cc1nc2c(c(-c3cc(Cl)c(O)c(C(N)=O)c3)cn2CC(=O)Nc2cc(N3CCN(C(C)C)C[C@@H]3C)ncc2Cl)c(=O)n1C [Compound I-272]
Ans: 7.83

Q: Observed pKd on BCL6 BTB domain (Homo sapiens (Human), UniProt P41182) for COc1c(O)c(C(N)=O)cc(-c2cn(CC(=O)Nc3cc(N4CCN(C)CC4)ncc3Cl)c3ncn(C)c(=O)c23)c1F [Compound I-189] , please.
Ans: 6.84

Q: Query pKd on BCL6 BTB domain (Homo sapiens (Human), UniProt P41182) for CC1OCCN(c2cc(NC(=O)Cn3cc(-c4cc(Cl)c(O)c(C(N)=O)c4)c4c(=O)n(C)cnc43)c(Cl)cn2)C1C (stereo not shown) [Compound I-83]
Ans: 7.80

Q: Please provide the recorded pKd for C=Cc1cc(NC(=O)Cn2cc(-c3cc(Cl)c(O)c(C(N)=O)c3)c3c(=O)n(C)cnc32)c(Cl)cn1 [Compound I-209] , tested on BCL6 BTB domain (Homo sapiens (Human), UniProt P41182).
Ans: 7.29

Q: Lab note: need pKd with BCL6 BTB domain (Homo sapiens (Human), UniProt P41182) for entry COCCN1CCN(c2cc(NC(=O)Cn3cc(-c4cc(F)c(O)c(C(N)=O)c4)c4c(=O)n(C)cnc43)c(Cl)cn2)[C@@H](C)C1 [Compound I-416] , please look it up.
Ans: 8.56

Q: Requested read-out pKd, target or system BCL6 BTB domain (Homo sapiens (Human), UniProt P41182), entry CN(C)c1cc(NC(=O)Cn2cc(-c3cc(Cl)c(O)c(C(N)=O)c3)c3c(=O)n(C)cnc32)c(Cl)c(F)n1 [Compound I-421]
Ans: 7.83

Q: Enter reported pKd observed with BCL6 BTB domain (Homo sapiens (Human), UniProt P41182) for Cn1cnc2c(c(-c3cc(Cl)c(O)c(C(N)=O)c3)cn2CC(=O)Nc2cc(N3CCOC4COCC43)ncc2Cl)c1=O (stereo not shown) [Compound I-277]
Ans: 7.68

Q: I'm curious: which pKd was measured for CCN1CCN(c2cc(NC(=O)Cn3cc(-c4cc(C(N)=O)c(O)c5c4OCO5)c4c(=O)n(C)cnc43)c(Cl)c(F)n2)[C@@H](C)C1 [Compound I-357] tested on BCL6 BTB domain (Homo sapiens (Human), UniProt P41182)?
Ans: 8.73

Q: API: value(readout= pKd, system= BCL6 BTB domain (Homo sapiens (Human), UniProt P41182), query= CN1CCN(c2cc(NC(=O)Cn3cc(-c4cc(C(N)=O)c(O)c(F)c4F)c4c(=O)n(C)cnc43)c(Cl)cn2)CC1 [Compound I-231] )
Ans: 7.05

Q: Query pKd on BCL6 BTB domain (Homo sapiens (Human), UniProt P41182) for Cc1c(O)c(C(N)=O)cc(-c2cn(CC(=O)Nc3cc(N4CCOCC4)ncc3Cl)c3ncn(C)c(=O)c23)c1F [Compound I-118]
Ans: 5.70

Q: Given the entry C[C@H]1CN(C)CCN1c1cc(NC(=O)Cn2cc(-c3cc(Cl)c(O)c(C(N)=O)c3)c3c(=O)n(C)c(-c4ccccc4)nc32)c(Cl)cn1 [Compound I-260] , what pKd was observed with BCL6 BTB domain (Homo sapiens (Human), UniProt P41182)?
Ans: 7.23

Q: GET /values?readout=pKd&system=BCL6 BTB domain (Homo sapiens (Human), UniProt P41182)&item= Cn1cnc2c(c(-c3cc(Cl)c(O)c(C(N)=O)c3)cn2CC(=O)Nc2cc(N3CCC4(CCOCC4)CC3)ncc2Cl)c1=O [Compound I-77]
Ans: 7.57

Q: Recorded pKd for CN1CC2(CCN(c3cc(NC(=O)Cn4cc(-c5cc(F)c(O)c(C(N)=O)c5)c5c(=O)n(C)cnc54)c(Cl)cn3)C2)C1 [Compound I-484] with BCL6 BTB domain (Homo sapiens (Human), UniProt P41182), please?
Ans: 7.39

Q: Missing value: pKd, BCL6 BTB domain (Homo sapiens (Human), UniProt P41182), entry Cn1cnc2c(c(-c3cc(F)c(O)c(C(N)=O)c3)cn2CC(=O)Nc2cc(N3CCCC3)nc(F)c2Cl)c1=O [Compound I-419] . Fill in?
Ans: 8.23

Q: Entry Cn1cnc2c(c(-c3cc(Cl)c(O)c(C(N)=O)c3)cn2CC(=O)Nc2cc(N3C4CCC3COC4)ncc2Cl)c1=O [Compound I-279] , system BCL6 BTB domain (Homo sapiens (Human), UniProt P41182): what pKd was measured?
Ans: 7.99

Q: // lookup pKd | system=BCL6 BTB domain (Homo sapiens (Human), UniProt P41182) | key= Cn1cnc2c(c(-c3cc(F)c(O)c(C(N)=O)c3)cn2CC(=O)Nc2cc(N3CC4CC3CO4)ncc2Cl)c1=O (stereo not shown) [Compound I-284]
Ans: 7.63

Q: Query for BCL6 BTB domain (Homo sapiens (Human), UniProt P41182): what pKd does the record show for CO[C@@H]1CN(c2cc(NC(=O)Cn3cc(-c4cc(C(N)=O)c(O)c(F)c4F)c4c(=O)n(C)cnc43)c(Cl)c(F)n2)C[C@@H]1F [Compound I-442] ?
Ans: 7.66

Q: Value wanted: pKd (BCL6 BTB domain (Homo sapiens (Human), UniProt P41182)) of entry Cn1cnc2c(c(-c3cc(C(N)=O)c(O)c(F)c3F)cn2CC(=O)Nc2cc(N3CC4CC3CN4CC(F)(F)F)ncc2Cl)c1=O (stereo not shown) [Compound I-363]
Ans: 7.23

Q: Form: Entry = Cn1cnc2c(c(-c3cc(Cl)c(O)c(C(N)=O)c3)cn2CC(=O)Nc2cc(N3CCOCC3)c(F)cc2Cl)c1=O [Compound I-195] | System = BCL6 BTB domain (Homo sapiens (Human), UniProt P41182) | pKd = ____
Ans: 6.71

Q: Fill in the recorded pKd for this molecule, with BCL6 BTB domain (Homo sapiens (Human), UniProt P41182) as test system: C[C@H]1CN(C)CCN1c1cc(NC(=O)Cn2cc(-c3cc(Cl)c(O)c(C(N)=O)c3)c3c(=O)[nH]c(-c4ccccc4)nc32)c(Cl)cn1 [Compound I-261]
Ans: 7.40

Q: Tell me reported pKd for Cc1cc(NC(=O)Cn2cc(-c3cc(Cl)c(O)c(C(N)=O)c3)c3c(=O)n(C)cnc32)c(Cl)cn1 [Compound I-334] , tested with BCL6 BTB domain (Homo sapiens (Human), UniProt P41182).
Ans: 7.52

Q: What measured pKd is associated with CO[C@@H]1CN(c2cc(NC(=O)Cn3cc(-c4cc(Cl)c(O)c(C(N)=O)c4)c4c(=O)n(C)c(C)nc43)c(Cl)c(F)n2)C[C@@H]1F [Compound I-399] on BCL6 BTB domain (Homo sapiens (Human), UniProt P41182)?
Ans: 7.51
